Reference for the values: a protein production outcome set (Wang et al. 2014)

experimental-protocol: label from the status in PepcDB records
readout-type: protein production

MSNMEKHLFNLKFAAKELSRSAKKCDKEEKAEKAKIKKAIQKGNMEVARIHAENAIRQKNQAVNFLRMSARVDAVAARVQTAVTMGKVTKSMAGVVKSMDATLKTMNLEKISALMDKFEHQFETLDVQTQQMEDTMSSTTTLTTPQNQVDMLLQEMADEAGLDLNMELPQGQTGSVGTSVASAEQDELSQRLARLRDQV :: not failed
MGIIERIKEIEAEMARTQKNKATEYHLGQLKAKIAKLRTQLLEPPKGASGGGEGFEVTKYGHGRVALIGFPSVGKSTLLTMLTGTHSEAASYEFTTLTCIPGVIHYNDTKIQLLDLPGIIEGASEGKGRGRQVIAVAKSSDLVLMVLDASKSEGHRQILTKELEAVGLRLNKTPPQIYFKKKKTGGISFNTTAPLTHIDEKLCYQILHEYKIHNAEVLFRENATVDDFIDVIEGNRKYIKCVYVYNKIDVVGIDDVDRLSRQPNSIVISCNLKLNLDRLLARMWDEMGLVRVYSKPQGQQPDFDEPFVLSSDRGGCTVEDFCNHVHRTLVKDMKYALVWGTSTRHNPQNCGLSQHLEDEDVVQIVKKKERDEGGRGRFKSHSNAPARIADREKKAPLKQ :: failed
LTLRSVFQPIFDKQHQVVGAEALVRIFTQHHTQIRPDLFFHSETFADDDKLNVERLSRAIHIRNFSLSPYRDTRLFLNVLPVAGEQFAYCDISSTLLATRLAELNIPHHRVVMELVEIESGDEGMLQMATEKLVANGFQIAIDDFGCKASTPERVAMLRPNIIKLDRQLLLDFMAGDCCGLLAGVQLAQKTGAHTVVEGIETAEQLAAMQKLDINMYQGYYLALP :: failed
PGLVDVHTHFMPERVLRKVWDYFDGLGPLTGGLEWPITYRSDEDQRLATIREFGVRAFTAMLYPHKAGMARWLNSWAVDFARRTPDCLHTATLFPEPGVEAYVLEAVEQGARVFKAHVQVGAYDPADELLDPVWGLLAEAGVPVVMHCGSGPAPGKHTGPGPVAQVLARHPRLRLVVAHLGMPEYEDFLDLAERYGEVRLDTTMAFTDFSERLAPFPRGARPRLAGLGDRILLGTDFPNIPYRYVDQLYALERLGLGDDWLRSVCHGNGARLFGL :: failed
STMSGYLYRSKGSKKPWKHLWFVIKNKVLYTYAASEDVAALESQPLLGFTVTLVKDENSESKVFQLLHKGMVFYVFKADDAHSTQRWIDAFQEGTV :: not failed
MDIKEAGPFPVKKEQFRMTVNGQAWEVAAVPTTHLSDLLRKEFQLTGTKVSCGIGRCGACSILIDGKLANACMTMAYQADGHSITTIEGLQKEELDMCQTAFLEEGGFQCGYCTPGMIIALKALFRETPQPSDKDIEEGLAGNLCRCTGYGGIMRSACRIRRELNGGRRESGF :: failed

----------
experimental-protocol: label from the status in PepcDB records
readout-type: protein production

MERHVNYTLIGGLFFLCLVCMVGFILWLGHLGLDDGKYYEYVVYTDKDLGGIATNSPINYKGIQVGNVIKVGFAKDKVGVVRLDLMIKSSVKIRKDSKVAVSSRGFMGLKFLALEQSHNEEFYGSGDKGERILIFKEGLMDRLSGDANQVVQEVMKAIRNVNRILDDENVEKFKHILASVDDLIANLDSRKTQFDSLISNANNLVSNVNNVALDVDKRLKQGQYDFKAMFTPLIMQAQLSLRNIDNFVEKGSALIDKFDANPYKTIFGERK :: failed
MARPAYRLLAYSLWDLIPIAMAVAHFAFVLWLVLDFHALSWWVILPAALLYAVSLSWSINSISHNQIHNAYFTPGWMNRGFDLLLSVTIGFSQTLYRDIHNRHHRGNSDLPDANGKTVDPLSIYLHGKDGQPDNPWAYTFLSFFRDDPKEIYQEMQRKRPDDARWVKVEIGVTVAFYLALALYDWHAVLVLLPFWYLGQSLSSLNGYYEHLGGNPDLPIAWGVSSYSPLYNLIWMNNGYHAEHHYRPKMHWTKVKAFHREIREQQRAAGVKVIPVSHGLGFLVAHRKV :: failed
MSRPDDIDVRPIAEAETADWIRALNTGFLRSPEVSEREVADRSSYLVPARTLGAFDNGRCVATFRSFPQELTAVGGASVPADAISNVTVTATHRRRGLLTRMMAQDLAAAKERGDVVATLIAAEYPIYGRYGFGAATHSTEWTID :: failed
